Quick list: activity change, negative = cytotoxicity per entry.
# measurement_protocol: A673 Ewing sarcoma viability loss – cell-based, CellTiter-Glo luminescence, cherry-pick retest, confirmation (AID 720587)
# test_context: A673 Ewing sarcoma viability, CellTiter-Glo ATP luminescence, 72 h; at 26 µM (top of the series)
Your answer is read as %, so omit the unit and give the number.

compound	assay_readout	result_unit	endpoint_result
CCOC(=O)Cc1csc(NC(=S)NC(=O)c2ccc(C)cc2)n1	activity change, negative = cytotoxicity	%	-1.19
O=C(O)c1ccc(N/N=C/c2cc(Br)cs2)cc1	activity change, negative = cytotoxicity	%	-5.62
CC(=O)N1CCCC(c2cc(C(=O)Nc3ccccc3)no2)C1 (configuration not stated)	activity change, negative = cytotoxicity	%	9.56
COc1ccc(S(=O)(=O)N=Nc2c(O)[nH]c3ccccc23)cc1	activity change, negative = cytotoxicity	%	8.74
Cc1ccsc1C(=O)OCC(=O)NCCC1=CCCCC1	activity change, negative = cytotoxicity	%	2.01

activity change, negative = cytotoxicity in this record for COC(=O)Cc1ccc(NC(=O)c2ccccc2Cl)cc1 : 5

activity change, negative = cytotoxicity in this record for CCc1ccc(Cn2ncc3c(C(=O)O)cc(C)nc32)cc1 : 17.3

###

Quick list: activity change, negative = cytotoxicity per entry.
# measurement_protocol: A673 Ewing sarcoma viability loss – cell-based, CellTiter-Glo luminescence, cherry-pick retest, confirmation (AID 720587)
# test_context: A673 Ewing sarcoma viability, CellTiter-Glo ATP luminescence, 72 h; at 26 µM (top of the series)
Activity calls are given as the source filed them.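 The calls were made as follows: active = fitted curve reaches -35% activity change at a concentration below twice the top valid dose tested; inactive = the rest, including effects opposite to the expected direction.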

Please review the following examples before continuing.
molecule	endpoint_result
CCCCOc1ccc(NC(=O)C(=O)NCCCn2ccnc2)cc1	-2.77% (inactive)
Cc1ccc(N=C2NC(=O)/C(=C\c3cccs3)S2)cc1C	1.74% (inactive)

activity change, negative = cytotoxicity in this record for CC1(CCc2ccccc2)NC(=O)N(CC(=O)N2CC(=O)Nc3ccccc32)C1=O (stereo unspecified) : 7.32% (inactive)

activity change, negative = cytotoxicity in this record for Cc1ccc(Cl)cc1NC(=O)Cn1cc(C(F)(F)F)cc(Cl)c1=O : 10.1% (inactive)

###

# measurement_protocol: A673 Ewing sarcoma viability loss – cell-based, CellTiter-Glo luminescence, cherry-pick retest, confirmation (AID 720587)
# test_context: A673 Ewing sarcoma viability, CellTiter-Glo ATP luminescence, 72 h; at 26 µM (top of the series)
Label MET when activity change, negative = cytotoxicity < -10%; otherwise NOT MET.

Worked cases, answers included:
structure_notation	category
COc1ccc(N=C(NN)c2ccc3ccccc3n2)cc1	MET
Cc1ccc(-c2ccc3c(c2)O[C@@H](CN(C)C(=O)Nc2ccc(F)cc2)[C@H](C)CN([C@@H](C)CO)S3(=O)=O)cc1	NOT MET
COc1ccc(NC(=O)N(C)[C@H]2C[C@H]3c4[nH]c5ccccc5c4CCN3C(=O)[C@H]2CO)cc1	NOT MET

Exercise: Lab note: activity change, negative = cytotoxicity threshold -10%. Does this compound come in strictly under it? O=C1C(=O)N(CCS(=O)(=O)c2ccccc2)c2ccc(Cl)cc21
Key: NOT MET

Exercise: Lab note: activity change, negative = cytotoxicity threshold -10%. Does this compound come in strictly under it? C[C@@H]1CN([C@@H](C)CO)S(=O)(=O)c2ccc(C#CCN(C)C)cc2O[C@@H]1CN(C)Cc1ccncc1
Key: MET

Exercise: Lab note: activity change, negative = cytotoxicity threshold -10%. Does this compound come in strictly under it? CC(C)NC(=O)N(C)C[C@@H]1Oc2cc(C#Cc3ccc(F)cc3)ccc2S(=O)(=O)N([C@H](C)CO)C[C@H]1C
Key: MET

Exercise: Lab note: activity change, negative = cytotoxicity threshold -10%. Does this compound come in strictly under it? N#C[C@@H]1[C@H](c2ccc(C#Cc3cccc(F)c3)cc2)[C@@H](CO)N1C(=O)C1CCCC1
Key: NOT MET

Exercise: Lab note: activity change, negative = cytotoxicity threshold -10%. Does this compound come in strictly under it? C[C@@H]1CN([C@H](C)CO)C(=O)c2cc(C#CCc3ccccc3)cnc2O[C@@H]1CN(C)Cc1cccc(F)c1
Key: MET
